Origin of measurements: PubChem BioAssay (NCI)

Tested on: SF-539 CNS
ASSAY PROTOCOL: NCI tumour cell line growth inhibition, 48 h
The reader will find reported TGI values listed item by item below.
Output spec: scalar in µM, unitless text.

[
  {
    "CPD SMILES": "COc1cc2c(cc1OC)C1(c3ccccc3)CN(C2)Cc2cc(OC)c(OC)cc21",
    "UNIT TAG": "µM",
    "TGI": 41.9
  }
]

Consider the additional compound presented here.
Looking up CCOC(=O)c1c(C)n2c(=O)cc(C)c3c(OC(C)=O)c(OC(C)=O)cc1c32 , I found its TGI recorded as 21.1

---

Test system: A498 renal
ASSAY PROTOCOL: NCI tumour cell line growth inhibition, 48 h; in the data active = GI50 below about 0.43 µM; inactive = the rest
Please reply with one of these outcomes: y = active, n = inactive

Use the examples below as a reference point.
[
  {
    "COMPOUND": "CCOC(=O)c1c(C)n2c(=O)cc(C)c3c(OC(C)=O)c(OC(C)=O)cc1c32",
    "ASSAY SYSTEM": "A498 renal",
    "GROUP LABEL": "n"
  },
  {
    "COMPOUND": "COc1cc([C@@H]2c3cc4c(cc3[C@H](O)[C@H]3COC(=O)[C@H]23)OCO4)cc(OC)c1OC",
    "ASSAY SYSTEM": "A498 renal",
    "GROUP LABEL": "y"
  },
  {
    "COMPOUND": "C#COc1cccc(Nc2ncnc3ncc(NC(=O)CCl)cc23)c1",
    "ASSAY SYSTEM": "A498 renal",
    "GROUP LABEL": "n"
  },
  {
    "COMPOUND": "CC[C@@H](C(=O)[C@@H](C)[C@@H](O)[C@H](C)[C@@H]1O[C@@H]([C@@H](CC)C(=O)O)CC[C@@H]1C)[C@H]1OC2(C=C[C@@H](O)[C@]3(CC[C@@](C)([C@H]4CC[C@](O)(CC)[C@H](C)O4)O3)O2)[C@H](C)C[C@@H]1C (stereo not given in full)",
    "ASSAY SYSTEM": "A498 renal",
    "GROUP LABEL": "y"
  }
]

Incoming: I'd appreciate the recorded outcome for COc1ccc(/C=C/c2cc(N3CCOCC3)c3cc(F)c(F)cc3n2)cc1OC from this test.
Outgoing: n
